Molecular target: M2 receptor from porcine atria (Sus scrofa)
Sequence (P06199 whole entry): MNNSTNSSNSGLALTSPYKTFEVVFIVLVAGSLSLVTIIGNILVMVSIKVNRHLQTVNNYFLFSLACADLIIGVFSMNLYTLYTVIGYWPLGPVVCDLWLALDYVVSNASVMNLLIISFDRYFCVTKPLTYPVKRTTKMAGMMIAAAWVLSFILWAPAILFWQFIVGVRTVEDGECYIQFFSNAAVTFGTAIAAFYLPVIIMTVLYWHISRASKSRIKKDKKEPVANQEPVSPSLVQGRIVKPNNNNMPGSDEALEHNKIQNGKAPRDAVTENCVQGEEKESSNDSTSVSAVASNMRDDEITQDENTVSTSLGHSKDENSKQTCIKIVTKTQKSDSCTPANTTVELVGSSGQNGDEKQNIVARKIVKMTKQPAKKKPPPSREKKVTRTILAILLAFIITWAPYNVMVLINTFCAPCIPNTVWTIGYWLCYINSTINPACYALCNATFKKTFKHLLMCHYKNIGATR
Assay: biochemical

{"columns": ["Compound", "Test system", "EC50"],
 "data": [
  ["CC[N+](CC)(CC)CCOc1cccc(OCC[N+](CC)(CC)CC)c1OCC[N+](CC)(CC)CC [gallamine, gallamine triethiodide]", "M2 receptor from porcine atria (Sus scrofa)", "~71 µM"]
]}
